test: self-splicing fitness, log relative to wild type (ln ratio); higher = more splicing; Tetrahymena group I intron in knt gene, E. coli kanamycin selection, DiMSum; sequences stand for … in CUCUCU…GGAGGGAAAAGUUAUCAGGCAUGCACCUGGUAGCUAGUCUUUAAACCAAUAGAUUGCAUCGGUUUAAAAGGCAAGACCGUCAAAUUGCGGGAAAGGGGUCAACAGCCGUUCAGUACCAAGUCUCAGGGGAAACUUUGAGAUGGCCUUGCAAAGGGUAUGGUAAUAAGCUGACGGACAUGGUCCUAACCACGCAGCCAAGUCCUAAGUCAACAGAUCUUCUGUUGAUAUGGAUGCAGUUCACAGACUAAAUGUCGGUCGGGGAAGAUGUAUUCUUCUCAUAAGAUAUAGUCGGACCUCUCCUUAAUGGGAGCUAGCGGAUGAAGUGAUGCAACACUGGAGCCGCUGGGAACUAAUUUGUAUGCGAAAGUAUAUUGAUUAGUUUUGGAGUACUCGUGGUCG; conditions: 30 °C;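 further: selection with 25 µg/mL kanamycin versus none on LB agar overnight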
Record form. Attribute: self-splicing fitness (ln). Fill in for each entry.

Below are worked cases with known answers.
Looking for the measured self-splicing fitness (ln) of CUGCAGCAAUAUUACGCGCU , can you help?
-2.68

Same question for AUAGAGCAAUAUUACGCUCU please.
-2.65

Same for AGCCAGCAAUAUUACGCUUU
-2.84

Next entry: UGGCAGCAAUAUUACGUUAG
-0.283

Query UAUUAGCAAUAUUACGUUAU next
-2.68

Same lookup for AGCUAGCAAUAUUACGCAGU , please.
-2.97

Field entry: CGGUAGCAAUAUUACGAUGA
-1.38

Next up: GUGAAGCAAUAUUACGGAUG
-0.987

Request: GGCAAGCAAUAUUACGACUA
-0.26

Ok, now UUCAAGCAAUAUUACGUGGC
-3.8

Count: 6. Required value per item: self-splicing fitness (ln).
1. GAUAAGCAAUAUUACGUGUA
2. UUAGAGCAAUAUUACGUAGC
3. UCCAAGCAAUAUUACGGCGA
4. UGUAAGCAAUAUUACGCAAC
5. CCAAAGCAAUAUUACGAAUA
6. UUGCAGCAAUAUUACGAUUA

[-2.1, -2.12, 0.214, -3.15, -3.55, -0.176]

====

Please respond with reported self-splicing fitness (ln) for every item in the list.
test: self-splicing fitness, log relative to wild type (ln ratio); higher = more splicing; Tetrahymena group I intron in knt gene, E. coli kanamycin selection, DiMSum; sequences stand for … in CUCUCU…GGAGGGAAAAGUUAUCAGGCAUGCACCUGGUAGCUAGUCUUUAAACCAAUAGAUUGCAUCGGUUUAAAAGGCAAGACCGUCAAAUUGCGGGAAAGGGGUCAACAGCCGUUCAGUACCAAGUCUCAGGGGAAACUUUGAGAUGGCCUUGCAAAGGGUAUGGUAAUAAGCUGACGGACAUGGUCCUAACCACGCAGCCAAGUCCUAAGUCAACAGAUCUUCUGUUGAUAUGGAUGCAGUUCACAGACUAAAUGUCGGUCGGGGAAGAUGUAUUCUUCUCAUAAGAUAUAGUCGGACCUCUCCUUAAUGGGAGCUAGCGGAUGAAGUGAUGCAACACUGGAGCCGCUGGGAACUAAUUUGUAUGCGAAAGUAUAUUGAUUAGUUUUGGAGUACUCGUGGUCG; settings: 37 °C
Numbers only.

These solved cases illustrate the format of a correct answer.
Looking for the measured self-splicing fitness (ln) of AGCUAGCAAUAUUACGACAA , can you help?
-1.34

Now the same for AAGCAGCAAUAUUACGGACU
-0.121

Queued: AGGAAGCAAUAUUACGAAAU
-1.53

Your task in this section: give self-splicing fitness (ln) for each listed record.
1. UCGGAGCAAUAUUACGCACG
2. UUUCAGCAAUAUUACGCGGA
3. CACAAGCAAUAUUACGAUAU
4. GAGCAGCAAUAUUACGCGUU
5. UUAGAGCAAUAUUACGUUGA
6. AUAAAGCAAUAUUACGAAAG

-0.819
-1.54
-2.52
-1.32
-0.538
-1.25

Hi! Can you tell me self-splicing fitness (ln) for each of these sequences?
1. UGAGAGCAAUAUUACGGUAU
2. ACACAGCAAUAUUACGUACG
3. UCGAAGCAAUAUUACGCCCU
4. GUUUAGCAAUAUUACGUUAC
5. GAUAAGCAAUAUUACGGAAU

1: -1.53; 2: -0.925; 3: -1.7; 4: -2.33; 5: -2.28

List self-splicing fitness (ln) for every entry below, keeping the order given.
1. UGUGAGCAAUAUUACGGUUU
2. ACAAAGCAAUAUUACGAAAU
3. CACCAGCAAUAUUACGCUUA
4. AUGAAGCAAUAUUACGCAUU
5. CACUAGCAAUAUUACGCCCA
6. CUAUAGCAAUAUUACGUAUG
7. AUAAAGCAAUAUUACGGCCA
8. AGACAGCAAUAUUACGCAUU

-2.65
-1.42
-1.23
-2.52
-1.35
-0.647
0.15
-1.45

// for each sequence below, give its self-splicing fitness (ln)
1. GGUCAGCAAUAUUACGCCGG
2. GGUGAGCAAUAUUACGGAUA
3. AGAGAGCAAUAUUACGACGC
4. CCCGAGCAAUAUUACGGUUU
5. CUUCAGCAAUAUUACGGAUA
6. UUCAAGCAAUAUUACGAUCA
7. AAUGAGCAAUAUUACGCGGA

-2.79
-1.88
-0.3
-1.96
-0.695
-0.189
-2.13

Count: 7. Required value per item: self-splicing fitness (ln).
1. GUCGAGCAAUAUUACGUGUU
2. GGUGAGCAAUAUUACGUAAG
3. AUAUAGCAAUAUUACGACCG
4. CUCUAGCAAUAUUACGUAAG
5. UCCCAGCAAUAUUACGUCUU
6. GUCAAGCAAUAUUACGAACU
7. UCUUAGCAAUAUUACGCGUG

1: -2.09; 2: -2.22; 3: 0.433; 4: -0.426; 5: -2.76; 6: -1.38; 7: -2.21

For each listed entry, give its self-splicing fitness (ln).
1. UAACAGCAAUAUUACGCAUG
2. CCAAAGCAAUAUUACGAUAG
3. CGGUAGCAAUAUUACGUUGA
4. CAUUAGCAAUAUUACGCGUG
5. AUCAAGCAAUAUUACGAGUC
6. CUCGAGCAAUAUUACGCCCG

-0.695
0.171
-1.76
-2.89
-2.19
-2.74

Could I get self-splicing fitness (ln) for every one of these entries?
1. CUAUAGCAAUAUUACGACUC
2. CUUAAGCAAUAUUACGAGGU
3. ACGAAGCAAUAUUACGGGCG

-1.31
-3.09
-0.126

Working through the 5 sequences below one at a time, give self-splicing fitness (ln) for each.
1. AUCCAGCAAUAUUACGCAUU
2. GAUCAGCAAUAUUACGCAUC
3. GGGAAGCAAUAUUACGGACC
4. CUGCAGCAAUAUUACGAUCU
5. UGUGAGCAAUAUUACGUCCA

1. -0.265
2. -3.11
3. -2.35
4. -2.46
5. -0.0412
